Items are presented alongside their recorded self-splicing fitness (ln).
- assay_explanation: self-splicing fitness, log relative to wild type (ln ratio); higher = more splicing; Tetrahymena group I intron in knt gene, E. coli kanamycin selection, DiMSum; sequences stand for … in CUCUCU…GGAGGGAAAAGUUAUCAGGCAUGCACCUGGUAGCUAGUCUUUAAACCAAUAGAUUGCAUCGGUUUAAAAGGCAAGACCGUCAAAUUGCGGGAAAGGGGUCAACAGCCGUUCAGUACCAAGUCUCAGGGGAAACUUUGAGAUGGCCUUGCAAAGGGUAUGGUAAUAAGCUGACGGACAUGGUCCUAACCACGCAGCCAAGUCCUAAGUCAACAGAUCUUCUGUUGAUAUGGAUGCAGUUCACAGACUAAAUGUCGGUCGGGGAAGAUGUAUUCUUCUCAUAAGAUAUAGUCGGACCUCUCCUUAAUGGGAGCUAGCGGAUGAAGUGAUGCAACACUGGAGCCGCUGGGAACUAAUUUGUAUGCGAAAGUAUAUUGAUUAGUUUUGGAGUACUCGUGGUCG;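 note: selection with 25 µg/mL kanamycin versus none on LB agar overnight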
- stated_conditions: 37 °C
Note: the reply should be a number with no unit written.

primary_sequence=CGGUAGCAAUAUUACGUAGU measurement_name="self-splicing fitness (ln)" value=-1.34
primary_sequence=GCUUAGCAAUAUUACGAUCG measurement_name="self-splicing fitness (ln)" value=-0.254
primary_sequence=CGCGAGCAAUAUUACGUAUA measurement_name="self-splicing fitness (ln)" value=-1.24

From here, focus on the item given below.
State the recorded self-splicing fitness (ln) for this entry: CUGAAGCAAUAUUACGGUAA
-1.27

----------
- assay_explanation: self-splicing fitness, log relative to wild type (ln ratio); higher = more splicing; Tetrahymena group I intron in knt gene, E. coli kanamycin selection, DiMSum; sequences stand for … in CUCUCU…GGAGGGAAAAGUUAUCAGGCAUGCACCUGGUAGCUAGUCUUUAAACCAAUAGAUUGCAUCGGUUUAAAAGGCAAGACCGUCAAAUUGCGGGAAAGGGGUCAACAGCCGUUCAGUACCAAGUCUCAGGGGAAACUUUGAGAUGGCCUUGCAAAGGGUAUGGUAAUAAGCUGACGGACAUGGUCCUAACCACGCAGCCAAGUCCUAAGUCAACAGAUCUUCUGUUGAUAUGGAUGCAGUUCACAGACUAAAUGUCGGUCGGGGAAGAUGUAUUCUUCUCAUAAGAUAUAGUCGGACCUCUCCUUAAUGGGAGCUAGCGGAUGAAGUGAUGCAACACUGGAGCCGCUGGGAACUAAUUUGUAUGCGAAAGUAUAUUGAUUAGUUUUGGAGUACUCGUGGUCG
- stated_conditions: 30 °C
Outcome label depends on self-splicing fitness (ln) relative to -3: at/above gives true, below gives false.

Illustrative cases are given below, each with its answer.
primary_sequence=UGGAAGCAAUAUUACGAAAU assigned_label=false
primary_sequence=CGGAAGCAAUAUUACGCUCA assigned_label=true
primary_sequence=CUUAAGCAAUAUUACGGGAA assigned_label=true
primary_sequence=UGUGAGCAAUAUUACGCAUG assigned_label=true

hey, is self-splicing fitness (ln) for this one >= -3? GAGCAGCAAUAUUACGGGAC
true

And what about the sequence ACCGAGCAAUAUUACGCAGC ?
false

And what about the sequence AGCCAGCAAUAUUACGACUG ?
true

And what about the sequence CAGAAGCAAUAUUACGUGGU ?
false

And what about the sequence CCUGAGCAAUAUUACGCUUA ?
true

And what about the sequence CCCAAGCAAUAUUACGGCCC ?
true

----------
- assay_explanation: self-splicing fitness, log relative to wild type (ln ratio); higher = more splicing; Tetrahymena group I intron in knt gene, E. coli kanamycin selection, DiMSum; sequences stand for … in CUCUCU…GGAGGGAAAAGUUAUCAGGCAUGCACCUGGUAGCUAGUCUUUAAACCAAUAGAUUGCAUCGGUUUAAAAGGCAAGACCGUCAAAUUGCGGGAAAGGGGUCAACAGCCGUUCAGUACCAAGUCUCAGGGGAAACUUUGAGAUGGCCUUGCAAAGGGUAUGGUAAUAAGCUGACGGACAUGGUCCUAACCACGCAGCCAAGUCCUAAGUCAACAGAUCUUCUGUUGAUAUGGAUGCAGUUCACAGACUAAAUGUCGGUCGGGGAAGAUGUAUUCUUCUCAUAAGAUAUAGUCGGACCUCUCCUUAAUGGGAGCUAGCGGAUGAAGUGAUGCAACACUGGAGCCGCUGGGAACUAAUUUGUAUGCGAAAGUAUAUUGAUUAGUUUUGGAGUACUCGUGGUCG
- stated_conditions: 30 °C
Outcome label depends on self-splicing fitness (ln) relative to -2: at/above gives satisfied, below gives not satisfied.

hey, is self-splicing fitness (ln) for this one >= -2? UGAAAGCAAUAUUACGUUGG
not satisfied

And what about the sequence AGCCAGCAAUAUUACGCGGA ?
not satisfied

And what about the sequence AAAGAGCAAUAUUACGUCAC ?
not satisfied

And what about the sequence CACAAGCAAUAUUACGCUUG ?
not satisfied

----------
- assay_explanation: self-splicing fitness, log relative to wild type (ln ratio); higher = more splicing; Tetrahymena group I intron in knt gene, E. coli kanamycin selection, DiMSum; sequences stand for … in CUCUCU…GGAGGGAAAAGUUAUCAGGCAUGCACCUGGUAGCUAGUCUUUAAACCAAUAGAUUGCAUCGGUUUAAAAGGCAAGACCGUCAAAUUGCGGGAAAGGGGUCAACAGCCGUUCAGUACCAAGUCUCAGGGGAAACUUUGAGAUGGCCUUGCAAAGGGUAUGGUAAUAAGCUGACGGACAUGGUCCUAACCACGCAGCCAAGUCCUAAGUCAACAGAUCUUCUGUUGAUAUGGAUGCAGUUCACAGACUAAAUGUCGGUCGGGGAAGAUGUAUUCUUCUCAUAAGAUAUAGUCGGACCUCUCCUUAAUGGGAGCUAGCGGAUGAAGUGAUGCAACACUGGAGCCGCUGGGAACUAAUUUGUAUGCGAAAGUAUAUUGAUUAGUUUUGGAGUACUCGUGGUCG
- stated_conditions: 30 °C
Items are presented alongside their recorded self-splicing fitness (ln).

Worked cases, answers included:
primary_sequence=UCCAAGCAAUAUUACGUGGG value=-3.89
primary_sequence=ACAUAGCAAUAUUACGAAUU value=-3.3
primary_sequence=CUGAAGCAAUAUUACGAGCC value=-3.13
primary_sequence=UGGUAGCAAUAUUACGCCUG value=0.0915
primary_sequence=UGCUAGCAAUAUUACGUCUA value=-1.21

From here, focus on the item given below.
State the recorded self-splicing fitness (ln) for this entry: GCCGAGCAAUAUUACGGACU
-1.86

----------
- assay_explanation: self-splicing fitness, log relative to wild type (ln ratio); higher = more splicing; Tetrahymena group I intron in knt gene, E. coli kanamycin selection, DiMSum; sequences stand for … in CUCUCU…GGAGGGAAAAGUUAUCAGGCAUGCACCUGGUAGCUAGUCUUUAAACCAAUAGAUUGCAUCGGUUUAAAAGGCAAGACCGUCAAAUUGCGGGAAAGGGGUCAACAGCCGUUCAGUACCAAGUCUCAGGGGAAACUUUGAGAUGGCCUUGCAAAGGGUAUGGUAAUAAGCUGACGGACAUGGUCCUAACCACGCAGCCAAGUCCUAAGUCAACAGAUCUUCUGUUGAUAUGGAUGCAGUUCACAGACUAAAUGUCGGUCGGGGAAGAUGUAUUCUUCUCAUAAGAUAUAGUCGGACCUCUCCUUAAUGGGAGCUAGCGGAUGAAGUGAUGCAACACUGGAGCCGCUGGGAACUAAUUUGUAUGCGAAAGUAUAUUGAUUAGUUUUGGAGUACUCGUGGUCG
- stated_conditions: 37 °C
Items are presented alongside their recorded self-splicing fitness (ln).
Note: the reply should be a number with no unit written.

Worked cases, answers included:
primary_sequence=GCGAAGCAAUAUUACGCUGG measurement_name="self-splicing fitness (ln)" value=-2.73
primary_sequence=CCCAAGCAAUAUUACGCGCU measurement_name="self-splicing fitness (ln)" value=-1.91
primary_sequence=UAUUAGCAAUAUUACGGUCG measurement_name="self-splicing fitness (ln)" value=0.383
primary_sequence=GUGUAGCAAUAUUACGCUCG measurement_name="self-splicing fitness (ln)" value=-0.53
primary_sequence=UGACAGCAAUAUUACGAACG measurement_name="self-splicing fitness (ln)" value=0.256
primary_sequence=GAACAGCAAUAUUACGAGGC measurement_name="self-splicing fitness (ln)" value=-2.03
primary_sequence=ACGAAGCAAUAUUACGAAAG measurement_name="self-splicing fitness (ln)" value=-2.32
primary_sequence=CACGAGCAAUAUUACGCCCG measurement_name="self-splicing fitness (ln)" value=-1.9
primary_sequence=UAUUAGCAAUAUUACGGGAU measurement_name="self-splicing fitness (ln)" value=-2.61
primary_sequence=CACCAGCAAUAUUACGCCCG measurement_name="self-splicing fitness (ln)" value=0.343

From here, focus on the item given below.
State the recorded self-splicing fitness (ln) for this entry: CUACAGCAAUAUUACGCAAG
-1.45
